tested on: Enterobacter cloacae; assay: MIC against clinically isolated aerobic Gram-negative strains; type: cell-based; details: 29 strains
Each entry below lists one item and its recorded MIC Range value.
measured-property: MIC Range

mol | result
C[C@@H](O)[C@H]1C(=O)N2C(C(=O)O)=C(S[C@@H]3CN[C@H](C(=O)Nc4cccc(C(=O)O)c4)C3)[C@H](C)[C@H]12 | 0.015 to 2 µg/mL
C[C@@H](O)[C@H]1C(=O)N2C(C(=O)O)=C(S[C@@H]3CN[C@H](C(=O)N(C)C)C3)[C@H](C)[C@H]12 | 0.015 to 0.5 µg/mL
C[C@@H](O)[C@H]1C(=O)N2C(C(=O)O)=C(S[C@@H]3CN[C@H](/C=C/c4cc(C(=O)O)no4)C3)[C@H](C)[C@H]12 | 0.015 to 2 µg/mL
C[C@@H](O)[C@H]1C(=O)N2C(C(=O)O)=C(SCCN=CN)C[C@H]12 | 0.12 to 1 µg/mL

====

system: Acinetobacter baumannii; assay: MIC against clinically isolated aerobic Gram-negative strains; type: cell-based; settings: 30 strains
Some molecules, each annotated with its measured MIC90.

mol | MIC90 (mg/L)
C[C@@H](O)[C@H]1C(=O)N2C(C(=O)O)=C(S[C@@H]3CN[C@H](/C=C/c4cc(C(=O)O)no4)C3)[C@H](C)[C@H]12 | 64
C[C@@H](O)[C@H]1C(=O)N2C(C(=O)O)=C(SCCN=CN)C[C@H]12 | 8
C[C@@H](O)[C@H]1C(=O)N2C(C(=O)O)=C(S[C@@H]3CN[C@H](C(=O)Nc4cccc(C(=O)O)c4)C3)[C@H](C)[C@H]12 | 64
C[C@@H](O)[C@H]1C(=O)N2C(C(=O)O)=C(S[C@@H]3CN[C@H](C(=O)N(C)C)C3)[C@H](C)[C@H]12 | 8

====

tested on: Bacteroides spp.; test: MIC against clinically isolated anaerobic Gram-negative strains; assay type: cell-based; conditions: 11 strains

mol | MIC Range
C[C@@H](O)[C@H]1C(=O)N2C(C(=O)O)=C(S[C@@H]3CN[C@H](C(=O)Nc4cccc(C(=O)O)c4)C3)[C@H](C)[C@H]12 | 0.5 to 2 µg/mL
C[C@@H](O)[C@H]1C(=O)N2C(C(=O)O)=C(SCCN=CN)C[C@H]12 | 0.25 to 2 µg/mL
C[C@@H](O)[C@H]1C(=O)N2C(C(=O)O)=C(S[C@@H]3CN[C@H](C(=O)N(C)C)C3)[C@H](C)[C@H]12 | 0.12 to 0.5 µg/mL
C[C@@H](O)[C@H]1C(=O)N2C(C(=O)O)=C(S[C@@H]3CN[C@H](/C=C/c4cc(C(=O)O)no4)C3)[C@H](C)[C@H]12 | 1 to 2 µg/mL
